Overview of reported IC50 across a group of molecules:
# Test system: HCV replicon
# ASSAY DETAILS: microbe, parasite or virus in culture
# Format: cell-based
# PROTOCOL CONDITIONS: Hepatitis C virus, 48 h, read-out: Replicon IC5Os μM

Here is how some molecules turned out for IC50.
1. CCn1c(C#Cc2ccc(NS(=O)(=O)CC)cc2)c(C#N)c2ccc(OC)cc21 0.5 to 2 µM
2. CCn1c(-c2ccc(NS(=O)(=O)C(C)C)cc2)c(C#N)c2ccc(OC)cc21 0.5 to 2 µM
3. CCn1c(-c2ccc(NC(=O)C3CCC3)cc2)c(C#N)c2ccc(OC)cc21 < 0.5 µM
4. CCn1c(C#Cc2cccc(NC(=O)NCCCl)c2)c(C#N)c2ccc(OC)cc21 0.5 to 2 µM

Entry COc1ccc(-n2cc(C#N)c3ccc(Cl)cc32)cc1 , tested on HCV replicon, has a reported IC50 of 0.5 to 2 µM

Entry CCn1c(-c2ccc(NC(=O)C3CC3)cc2)c(C#N)c2ccccc21 , tested on HCV replicon, has a reported IC50 of 0.5 to 2 µM

Entry CCn1c(C#Cc2cccc(NC(C)=O)c2)c(C#N)c2ccc(OC)cc21 , tested on HCV replicon, has a reported IC50 of 0.5 to 2 µM

Entry CCCS(=O)(=O)Nc1ccc(-c2c(C#N)c3ccc(OC)cc3n2CC)cc1 , tested on HCV replicon, has a reported IC50 of 0.5 to 2 µM

Entry CCn1c(-c2ccc(NC(=O)C(C)C)cc2)c(C#N)c2ccccc21 , tested on HCV replicon, has a reported IC50 of 0.5 to 2 µM

Entry CCn1c(C#Cc2cccc(N)c2)c(C#N)c2ccc(OC)cc21 , tested on HCV replicon, has a reported IC50 of 0.5 to 2 µM

Entry CCn1c(-c2ccc(NS(C)(=O)=O)cc2)c(C#N)c2cc(OC)ccc21 , tested on HCV replicon, has a reported IC50 of < 0.5 µM

Entry CCn1c(-c2ccc(NS(=O)(=O)CCCCl)cc2)c(C#N)c2ccc(OC)cc21 , tested on HCV replicon, has a reported IC50 of 0.5 to 2 µM

Entry CCn1c(C#Cc2ccccc2)c(C#N)c2ccc(O)cc21 , tested on HCV replicon, has a reported IC50 of 0.5 to 2 µM
